Target: Estrogen receptor (Homo sapiens)
Sequence (P03372 whole entry, the tested form may be a part): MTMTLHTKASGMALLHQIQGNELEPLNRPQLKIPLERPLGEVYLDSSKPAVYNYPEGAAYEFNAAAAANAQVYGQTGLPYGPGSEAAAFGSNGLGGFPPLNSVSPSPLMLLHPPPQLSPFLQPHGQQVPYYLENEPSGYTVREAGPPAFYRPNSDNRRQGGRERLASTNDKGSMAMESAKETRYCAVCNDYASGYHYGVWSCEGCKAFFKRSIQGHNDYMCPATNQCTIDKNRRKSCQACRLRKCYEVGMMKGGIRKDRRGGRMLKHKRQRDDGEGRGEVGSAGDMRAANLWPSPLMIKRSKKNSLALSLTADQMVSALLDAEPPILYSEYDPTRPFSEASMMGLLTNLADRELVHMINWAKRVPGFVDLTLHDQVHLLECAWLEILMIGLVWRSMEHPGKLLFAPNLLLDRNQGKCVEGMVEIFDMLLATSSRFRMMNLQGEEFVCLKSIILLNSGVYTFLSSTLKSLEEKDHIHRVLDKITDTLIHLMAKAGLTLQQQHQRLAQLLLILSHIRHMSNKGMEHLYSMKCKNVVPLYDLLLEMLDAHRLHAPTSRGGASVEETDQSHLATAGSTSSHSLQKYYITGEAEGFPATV
Assay: Binding affinity to recombinant His-tagged ERalpha LBD (307 to 554 residue) (unknown origin) expressed in Escherichia coli preincubated for 15 mins followed by ligand addition and measured after 1 hr by fluorescent polarization assay
pIC50: −log10 of the molar value.

# COMPOUND, VALUE_QUALIFIER, pIC50
data = [
    ("CN(Cc1cccc(O)c1Cl)CC1(c2ccc(OCCN3CCCCC3)cc2F)CCCC1", "=", 7.21),
    ("CN(Cc1cccc(O)c1Cl)C(C1CCCC1)C(F)(F)F (stereo not drawn)", "=", 7.15),
    ("Cc1c(-c2ccc(O)cc2)n(Cc2ccc(OCCn3cc(COCCOc4cccc5c4C(=O)N(C4CCC(=O)NC4=O)C5=O)nn3)cc2)c2ccc(O)cc12 (stereo not drawn)", "=", 8.80),
    ("CN[C@@H](C)C(=O)N[C@H](C(=O)N1CCC[C@H]1c1nc(C(=O)c2cccc(OCCOCc3cn(CCOc4ccc(Cn5c(-c6ccc(O)cc6)c(C)c6cc(O)ccc65)cc4)nn3)c2)cs1)C1CCCCC1", "=", 8.14),
    ("Oc1cccc(CN(CCOCCN2CCCCC2)CC2(c3ccccc3F)CCCC2)c1Cl", "=", 7.08),
    ("Cc1ncsc1-c1ccc([C@@H](C)NC(=O)[C@@H]2C[C@@H](O)CN2C(=O)[C@H](NC(=O)COCCOCc2cn(CCOc3ccc(N(Cc4cccc(O)c4Cl)CC4(c5ccccc5F)CCCC4)cc3)nn2)C(C)(C)C)cc1", "=", 7.28),
    ("Cc1ncsc1-c1ccc([C@H](C)NC(=O)[C@@H]2C[C@@H](O)CN2C(=O)[C@@H](NC(=O)COCCOCCOCc2cn(CCOc3ccc(Cn4c(-c5ccc(O)cc5)c(C)c5cc(O)ccc54)cc3)nn2)C(C)(C)C)cc1", "=", 7.66),
    ("CN[C@H](C)C(=O)N[C@H](C(=O)N1CCC[C@H]1c1nc(C(=O)c2ccc(F)cc2)cs1)C1CCN(C(=O)COCCOCc2cn(CCOc3ccc(Cn4c(-c5ccc(O)cc5)c(C)c5cc(O)ccc54)cc3)nn2)CC1", "=", 7.28),
    ("Oc1cccc(CN(CC2(c3ccccc3F)CCCC2)c2ccc(OCCN3CCCCC3)cc2)c1Cl", "=", 8.10),
    ("CN(Cc1cccc(O)c1Cl)CC1(c2ccccc2OCCN2CCCCC2)CCCC1", "<", 5.00),
    ("Cc1ncsc1-c1ccc([C@H](C)NC(=O)[C@@H]2C[C@@H](O)CN2C(=O)[C@@H](NC(=O)COCCOCc2cn(CCOc3ccc(Cn4c(-c5ccc(O)cc5)c(C)c5cc(O)ccc54)cc3)nn2)C(C)(C)C)cc1", "=", 7.66),
    ("Oc1cccc(CN(CCCN2CCCCC2)CC2(c3ccccc3F)CCCC2)c1Cl", "=", 6.02),
    ("Cc1ncsc1-c1ccc(CNC(=O)N2C[C@H](O)CC2C(=O)[C@H](NC(=O)C2(F)CC2)C(C)(C)C)c(OCCOCc2cn(CCOc3ccc(Cn4c(-c5ccc(O)cc5)c(C)c5cc(O)ccc54)cc3)nn2)c1 (stereo partly drawn)", "=", 8.28),
    ("Cc1ncsc1-c1ccc([C@H](C)NC(=O)[C@@H]2C[C@@H](O)CN2C(=O)[C@H](NC(=O)COCc2cn(CCOc3ccc(N(Cc4cccc(O)c4Cl)CC4(c5ccccc5F)CCCC4)cc3)nn2)C(C)(C)C)cc1", "=", 7.77),
    ("Oc1cccc(CN(CCN2CCCCC2)CC2(c3ccccc3F)CCCC2)c1Cl", "<", 5.00),
    ("CN(Cc1cccc(O)c1Cl)CC1(c2ccccc2F)CCCC1", "=", 7.82),
    ("Cc1ncsc1-c1ccc([C@H](C)NC(=O)[C@@H]2C[C@@H](O)CN2C(=O)[C@@H](NC(=O)COCc2cn(CCOc3ccc(Cn4c(-c5ccc(O)cc5)c(C)c5cc(O)ccc54)cc3)nn2)C(C)(C)C)cc1", "=", 7.96),
    ("Oc1cccc(CN(CC2(c3ccccc3F)CCCC2)c2ccccc2)c1Cl", "=", 7.82),
]
